- Measured Target: mu opiate receptor (MOR) (Rattus norvegicus, UniProt P33535)
- Construct: from tissue; host or cells: striatum (membrane preparation)
- Sequence (P33535 whole entry): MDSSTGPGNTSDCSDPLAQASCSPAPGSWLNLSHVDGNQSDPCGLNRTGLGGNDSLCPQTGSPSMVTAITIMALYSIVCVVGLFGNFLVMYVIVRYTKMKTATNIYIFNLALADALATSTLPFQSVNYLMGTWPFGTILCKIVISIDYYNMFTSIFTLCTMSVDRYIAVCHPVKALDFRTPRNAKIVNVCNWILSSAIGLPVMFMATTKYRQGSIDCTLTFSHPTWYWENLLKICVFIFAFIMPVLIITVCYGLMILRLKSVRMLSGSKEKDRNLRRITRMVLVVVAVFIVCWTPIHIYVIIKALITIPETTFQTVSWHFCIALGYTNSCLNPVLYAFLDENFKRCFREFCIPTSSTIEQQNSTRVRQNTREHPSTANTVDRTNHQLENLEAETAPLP
- Protocol: MOR agonist activity using [35S]GTPgS binding assay in striatal membranes
- Assay type: biochemical
- Details: 1 μM + BFNA; Series C-1 table
Endpoint Label: MOR agonist activity ([35S]GTPgS binding to Gao) (%)
# value in %; strip the unit string

// known answers, use as guide
Compound	Units Symbol	Observed Measurement
O=S(=O)(c1ccc(Br)cc1)N1CCC2(CC1)OCCN2S(=O)(=O)c1ccc(Br)cc1 [Compound C0025]	%	80.2
CC(=O)c1ccc(C(=O)N2CCC3(CC2)OCCN3S(=O)(=O)c2ccc(C(C)=O)cc2)cc1 [Compound C0052]	%	42.7
O=S(=O)(c1ccc(C(F)(F)F)cc1)N1CCC2(CC1)OCCN2S(=O)(=O)c1ccc(C(F)(F)F)cc1 [Compound C0012]	%	184.4
N#Cc1ccc(S(=O)(=O)N2CCC3(CC2)OCCN3S(=O)(=O)c2ccc(C#N)cc2)cc1 [Compound C0008]	%	2.8

[Q] Tell me the measured MOR agonist activity ([35S]GTPgS binding to Gao) of O=S(=O)(c1cccs1)N1CCC2(CC1)OCCN2S(=O)(=O)c1cccs1 [Compound C0141M] , please.
[A] 47.9

[Q] Tell me the measured MOR agonist activity ([35S]GTPgS binding to Gao) of O=C(OCc1ccccc1)c1ccc(S(=O)(=O)N2CCC3(CC2)OCCN3S(=O)(=O)c2ccc(C(=O)OCc3ccccc3)cc2)cc1 [Compound C0042] , please.
[A] 110.6

[Q] Tell me the measured MOR agonist activity ([35S]GTPgS binding to Gao) of COc1ccccc1S(=O)(=O)N1CCC2(CC1)OCCN2S(=O)(=O)c1ccccc1OC [Compound C0003] , please.
[A] 107.7

====

- Measured Target: mu opiate receptor (MOR) (Rattus norvegicus, UniProt P33535)
- Construct: from tissue; host or cells: striatum (membrane preparation)
- Protocol: MOR agonist activity using [35S]GTPgS binding assay in striatal membranes
- Type: biochemical
- Details: 1 μM + BFNA; Series C-1 table
Label false if MOR agonist activity ([35S]GTPgS binding to Gao) falls below 60%; label true in every other case.

Compound	Category
CC(C)c1ccc(S(=O)(=O)N2CCC3(CC2)OCCN3S(=O)(=O)c2ccc(C(C)C)cc2)cc1 [Compound C0007]	false
COc1ccc(C(=O)N2CCC3(CC2)OCCN3S(=O)(=O)c2ccc(OC)cc2)cc1 [Compound C0018]	true
Cc1cccc(S(=O)(=O)N2CCC3(CC2)OCCN3S(=O)(=O)c2cccc(C)c2)c1 [Compound C0014]	true
CC(=O)c1ccc(S(=O)(=O)N2CCC3(CC2)NC(=O)CN3S(=O)(=O)c2ccc(C(C)=O)cc2)cc1 [Compound C0064]	false

[Q] Check the entry CC(O)c1ccc(S(=O)(=O)N2CCC3(CC2)OCCN3S(=O)(=O)c2ccc(C(C)O)cc2)cc1 (stereo not shown) [Compound C0051] : does MOR agonist activity ([35S]GTPgS binding to Gao) equal or exceed 60%?
[A] false

[Q] Check the entry O=S(=O)(c1ccc(Oc2ccccc2)cc1)N1CCC2(CC1)OCCN2S(=O)(=O)c1ccc(Oc2ccccc2)cc1 [Compound C0149M] : does MOR agonist activity ([35S]GTPgS binding to Gao) equal or exceed 60%?
[A] true

[Q] Check the entry O=S(=O)(c1ccc(Br)cc1F)N1CCC2(CC1)OCCN2S(=O)(=O)c1ccc(Br)cc1F [Compound C0078] : does MOR agonist activity ([35S]GTPgS binding to Gao) equal or exceed 60%?
[A] true

====

- Measured Target: mu opiate receptor (MOR) (Rattus norvegicus, UniProt P33535)
- Construct: from tissue; host or cells: striatum (membrane preparation)
- Protocol: MOR agonist activity using [35S]GTPgS binding assay in striatal membranes
- Format: biochemical
- Details: 1 μM + BFNA; Series C-2 table
Endpoint Label: MOR agonist activity ([35S]GTPgS binding to Gao) (%)
# value in %; strip the unit string

Molecule	Measured Target	Observed Measurement
CC(=O)c1ccc(S(=O)(=O)N2CC(CN(C)C)OC23CCN(C)CC3)cc1 (stereo not drawn) [Compound C0108M]	mu opiate receptor (MOR) (Rattus norvegicus, UniProt P33535)	76.9

[Q] Tell me the measured MOR agonist activity ([35S]GTPgS binding to Gao) of COc1ccc(S(=O)(=O)N2CCC3(CC2)NCCC(=O)N3)cc1 [Compound C0142M] , please.
[A] 98.7

[Q] Tell me the measured MOR agonist activity ([35S]GTPgS binding to Gao) of COc1ccc(S(=O)(=O)N2CCC3(NCCO3)C3CCCCC32)cc1 (stereo not drawn) [Compound C0144M-2] , please.
[A] 125.9

[Q] Tell me the measured MOR agonist activity ([35S]GTPgS binding to Gao) of CC(=O)c1ccc(S(=O)(=O)N2CCOC23CCN(CC2CC2)CC3)cc1 [Compound C0095M] , please.
[A] 107.7

[Q] Tell me the measured MOR agonist activity ([35S]GTPgS binding to Gao) of COc1ccc(S(=O)(=O)N2CCOC23CCNCC3)cc1 , please.
[A] 72.2

[Q] Tell me the measured MOR agonist activity ([35S]GTPgS binding to Gao) of CS(=O)(=O)c1ccc(S(=O)(=O)N2CCOC23CCN(CC2CC2)CC3)cc1 [Compound C0126M] , please.
[A] 108.5

[Q] Tell me the measured MOR agonist activity ([35S]GTPgS binding to Gao) of O=S(=O)(c1ccccc1Oc1ccccc1)N1CCC2(CC1)NCCO2 [Compound C0149M-2] , please.
[A] 93.4

[Q] Tell me the measured MOR agonist activity ([35S]GTPgS binding to Gao) of COc1ccc(S(=O)(=O)N2CCOC23CCCNC3)cc1 (stereo not drawn) [Compound C0145M-3] , please.
[A] 87.0

[Q] Tell me the measured MOR agonist activity ([35S]GTPgS binding to Gao) of CCN1CCC2(CC1)OCCN2S(=O)(=O)c1ccc(C(C)=O)cc1 [Compound C0094M] , please.
[A] 115.3

[Q] Tell me the measured MOR agonist activity ([35S]GTPgS binding to Gao) of COc1ccc(S(=O)(=O)N2CCOC23CCN(C(C)C)CC3)cc1 [Compound C0133M] , please.
[A] 72.4

[Q] Tell me the measured MOR agonist activity ([35S]GTPgS binding to Gao) of CC(=O)c1ccc(S(=O)(=O)N2CCC3(CC2)OCCN3S(C)(=O)=O)cc1 , please.
[A] 86.3

[Q] Tell me the measured MOR agonist activity ([35S]GTPgS binding to Gao) of CC(=O)c1ccc(S(=O)(=O)N2C(Cc3c[nH]cn3)C(=O)NC23CCNCC3)cc1 (stereo not drawn) [Compound C0119M] , please.
[A] 35.1

[Q] Tell me the measured MOR agonist activity ([35S]GTPgS binding to Gao) of CC(=O)c1ccc(S(=O)(=O)N2CC(=O)NC23CCNCC3)cc1 [Compound C0086M] , please.
[A] 152.3

[Q] Tell me the measured MOR agonist activity ([35S]GTPgS binding to Gao) of O=C1CNC2(CCN(CC3CC3)CC2)N1Cc1ccccc1 [Compound C0124M] , please.
[A] 61.4

[Q] Tell me the measured MOR agonist activity ([35S]GTPgS binding to Gao) of CCCCN1CCC2(CC1)OCCN2S(=O)(=O)c1ccc(C(C)=O)cc1 [Compound C0101M] , please.
[A] 174.8

[Q] Tell me the measured MOR agonist activity ([35S]GTPgS binding to Gao) of CC(=O)c1ccc(S(=O)(=O)N2CCC3(CC2)NCCS3)cc1 , please.
[A] 143.9

[Q] Tell me the measured MOR agonist activity ([35S]GTPgS binding to Gao) of COc1ccc(S(=O)(=O)N2CCOC23CCN(C)CC3)cc1 [Compound C0088M] , please.
[A] 177.1

[Q] Tell me the measured MOR agonist activity ([35S]GTPgS binding to Gao) of CN1CCC2(CC1)OCCN2S(=O)(=O)c1ccc(S(C)(=O)=O)cc1 [Compound C0106M] , please.
[A] 117.2

====

MOR agonist activity ([35S]GTPgS binding to Gao) listing for selected compounds.
- Measured Target: mu opiate receptor (MOR) (Rattus norvegicus)
- Construct: from tissue; host or cells: striatum (membrane preparation)
- Protocol: MOR agonist activity using [35S]GTPgS binding assay in striatal membranes
- Type: biochemical
- Details: 0.1 μM compound as agonist; Series C-1 table
The reply should consist of the numeric value with the unit placed after it.

// known answers, use as guide
Compound	Observed Measurement
Cc1cccc(S(=O)(=O)N2CCC3(CC2)OCCN3S(=O)(=O)c2cccc(C)c2)c1	144.9%
COc1ccc(NC(=O)N2CCC3(CC2)OCCN3C(=O)Nc2ccc(OC)cc2)cc1 [Compound C0151M]	346.8%
O=C(OCc1ccccc1)c1ccc(S(=O)(=O)N2CCC3(CC2)OCCN3S(=O)(=O)c2ccc(C(=O)OCc3ccccc3)cc2)cc1	167.1%

Turning now to a further record.
[Q] What value of MOR agonist activity ([35S]GTPgS binding to Gao) on mu opiate receptor (MOR) (Rattus norvegicus) does CC(=O)c1ccc(S(=O)(=O)N2CCC3(CC2)NC(=O)C(Cc2cnc[nH]2)N3S(=O)(=O)c2ccc(C(C)=O)cc2)cc1 (stereo not shown) [Compound C0084M] have?
[A] 163.1%
